# System: S. agalactiae cells
# PROTOCOL: Inhibition of cell growth overnight under respiration permissive conditions (GI50)
# Type: cell-based, Streptococcus agalactiae
# TEST PARAMETERS: Streptococcus agalactiae; overnight growth, respiration permissive conditions; read-out: GI50 (concentration that causes 50% inhibition of cell growth)
REPORTED PROPERTY: log10(GI50) (log10 of the value in µM)
Record value = log10 of GI50 given in µM.

Answered examples (4):
[
  {
    "MOLECULE": "COc1cc(C(=O)NS(=O)(=O)c2ccccc2C)ccc1Cc1cn(C)c2ccc(NC(=O)OC3CCCC3)cc12 [Zafirlukast]",
    "log10(GI50)": 0.78
  },
  {
    "MOLECULE": "Cc1cc(C(C#N)c2ccc(Cl)cc2)c(Cl)cc1NC(=O)c1cc(I)cc(I)c1O (centres unmarked) [Closantel]",
    "log10(GI50)": -0.60
  },
  {
    "MOLECULE": "CCCCC(CC)CNC(=N)NC(=N)NCCCCCCNC(=N)NC(=N)NCC(CC)CCCC (centres unmarked) [Alexidine]",
    "log10(GI50)": 0.43
  },
  {
    "MOLECULE": "CSc1nc2cc(Cl)c(Oc3cccc(Cl)c3Cl)cc2[nH]1 [Triclabendazole]",
    "log10(GI50)": 1.18
  }
]

Proceed to the following item.
// query Any idea what its log10(GI50) is? The molecule is CC[C@H](C)C[C@H](C)CCCCCCCCC(=O)N[C@H]1C[C@@H](O)[C@@H](NCCN)NC(=O)[C@@H]2[C@@H](O)CCN2C(=O)[C@H]([C@H](O)CCN)NC(=O)[C@H]([C@H](O)[C@@H](O)c2ccc(O)cc2)NC(=O)[C@@H]2C[C@@H](O)CN2C(=O)[C@H]([C@@H](C)O)NC1=O [Caspofungin]
// result 1.61
